Experiment: Quantitative highthroughput screen to assess conditional lethalithy of P12 Ichikawa cells grown in Human Plasma-Like Medium with dialyzed fetal bovine serum (HPLM+ds) (AID 1963879); note: nearly all actives have a fitted effect of over 35% in size; note: potency is the fitted concentration of half-maximal effect
Details: ATP luminescence, 48 h; viability; series mostly up to 45.8 µM
Results filed as inconclusive are left out. Calls of active or inactive are those of the source. Calls come from the whole dose curve; as a rule, active = well fitted cell-killing curve with a large enough effect; inconclusive = small, poorly fitted or top-dose-only effect; inactive = flat fitted curve, though single readings scatter.
reported-metric: Potency

# compound, Potency
measured = [
    ("CCOc1cc(CC(=O)N[C@@H](CC(C)C)c2ccccc2N2CCCCC2)ccc1C(=O)O", "2350 nM (active)"),
    ("CC[C@H]1CN2CCc3cc(OC)c(OC)cc3[C@H]2C[C@@H]1C[C@@H]1NCCc2cc(OC)c(OC)cc21", "209 nM (active)"),
    ("CS(=O)(=O)c1ccc(C2=C(c3ccccc3)C(=O)OC2)cc1", "inactive"),
    ("Cc1cc(CN2CCN(c3c(Br)cnc4nc(-c5ccc(N6CCN(C)CC6)cc5)[nH]c34)CC2)no1", "1050 nM (active)"),
    ("COc1ccc([C@@H]2CNC(=O)C2)cc1OC1CCCC1", "inactive"),
    ("Clc1ccc(-c2nc3sccn3c2C=NOCc2ccc(Cl)c(Cl)c2)cc1", "inactive"),
    ("Cn1c(N2CCCCS2(=O)=O)nc(C(=O)NCc2ccc(F)cc2)c(O)c1=O", "inactive"),
    ("COc1cccc(-c2cc(=O)c3ccccc3o2)c1N", "inactive"),
    ("Cc1cnc(NC(=O)C2=C(O)c3ccccc3S(=O)(=O)N2C)s1", "inactive"),
    ("CN(C)c1ccc(C(=O)NCCCCCCC(=O)NO)cc1", "1480 nM (active)"),
]

Now turn to the next compound.
*Q* Find the recorded Potency belonging to `Cc1cnc(Nc2ccc(OCCN3CCCC3)cc2)nc1Nc1cccc(S(=O)(=O)NC(C)(C)C)c1` and report it.
*A* inactive

* * *

Assay: Cellular viability qHTS for adrenocortical cancer (ACC) cell line SW-13 (AID 1963989);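 note: cells grown in serum-free medium with ITS supplement; % is set by controls: 0 for no effect and ±100 for the full control effect; nearly all actives have a fitted effect of over 65% in size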
Conditions: SW-13 ACC cells viability, CellTiter-Glo, 48 h; stronger effect = lower value
Results filed as inconclusive are left out.
reported-metric: activity (max response) (%)
Please give a number only; it is taken to be in %.

Example results:
# compound, activity (max response) / %
records = [
    ("Cc1ncc(CO)c(CN)c1O", 7.61),
    ("COc1ccccc1N1CCN(CCCNc2cc(=O)n(C)c(=O)n2C)CC1", 2.85),
    ("CNC(=O)[C@H](Cc1ccccc1)NC(=O)[C@H](CC(C)C)[C@H](CSc1cccs1)C(=O)NO", -14.2),
    ("CC[C@@H]([C@H](C)O)n1ncn(-c2ccc(N3CCN(c4ccc(OCC5CO[C@@](Cn6cncn6)(c6ccc(F)cc6F)C5)cc4)CC3)cc2)c1=O (stereo not given in full)", -5.54),
    ("CN(C)CCCOC1(Cc2ccccc2)CCCCCC1", 2.61),
    ("CCC(Cc1c(I)cc(I)c(N)c1I)C(=O)O (stereo not given)", 1.75),
]

*Q* Find the recorded activity (max response) belonging to `C=C1c2cccc(O)c2C(O)=C2C(=O)[C@@]3(O)C(O)=C(C(N)=O)C(=O)[C@@H](N(C)C)[C@@H]3[C@@H](O)[C@H]12` and report it.
*A* -8.37

*Q* Find the recorded activity (max response) belonging to `N[C@@H](Cc1c[nH]c2ccc(O)cc12)C(=O)O` and report it.
*A* 10.6

*Q* Find the recorded activity (max response) belonging to `C[C@]12CC[C@@H]3c4ccc(O)cc4CC[C@H]3[C@@H]1C[C@@H](O)[C@@H]2O` and report it.
*A* -7.09

*Q* Find the recorded activity (max response) belonging to Cc1cccc(OCC(O)CNC(C)(C)C)c1C (stereo not given) and report it.
*A* -1.22

* * *

Experiment: Viability qHTS for spleen associated tyrosine kinase inhibitor (SYKi) drug resistant MV4-11 cells (AID 1963824); note: nearly all actives have a fitted effect of over 35% in size
Conditions: SYKi-resistant MV4-11 viability, CellTiter-Glo, 72 h; series mostly up to 45 µM
Inconclusive results are not listed. Calls of active or inactive are those of the source. Calls come from the whole dose curve; as a rule, active = well fitted cell-killing curve with a large enough effect; inconclusive = small, poorly fitted or top-dose-only effect, or effect the other way; inactive = no such curve, though single readings can be large or run the other way.
Outcome field: choose from active, inactive

# compound, class-assignment
measured = [
    ("CC(=O)NC(CCC(=O)O)C(=O)NCCc1ccc(O)cc1 (configuration not stated)", "inactive"),
    ("Nc1ncnc2c1c(I)cn2C1OC(CO)C(O)C1O (configuration not stated)", "active"),
    ("C=C1CCCC2(C)CCC(C(C)(C)OC3OC(C)C(O)C(O)C3OC(=O)/C(C)=C\\C)CC12 (configuration not stated)", "active"),
    ("O=C1CC2(CCCC2)[C@H](O)C(=O)N1CCCCN1CCN(c2ncccn2)CC1", "inactive"),
    ("C[C@@H](O[C@H]1OCCN(Cc2n[nH]nc2CN(C)C)[C@H]1c1ccc(F)cc1)c1cc(C(F)(F)F)cc(C(F)(F)F)c1", "active"),
    ("COc1ccc(CN2C(=O)C(=O)c3cc(S(=O)(=O)N4CCC[C@H]4COc4cccnc4)ccc32)cc1", "inactive"),
    ("O=C1Nc2ccc(O)cc2O[C@H]1O[C@@H]1O[C@H](CO)[C@@H](O)[C@H](O)[C@H]1O", "inactive"),
    ("Nc1ccc(S(N)(=O)=O)cc1", "inactive"),
]

*Q* Kindly provide the recorded test outcome for the following compound: `NC[C@H]1O[C@H](O[C@@H]2[C@@H](O)[C@@H](O[C@H]3O[C@H](CO)[C@@H](O)[C@H](N)[C@@H]3O)[C@H](N)C[C@@H]2N)[C@H](O)[C@@H](O)[C@H]1O`
*A* inactive

*Q* Kindly provide the recorded test outcome for the following compound: `C/C=C/C/C=C/CCC(=O)[C@H]1O[C@H]1C(N)=O`
*A* active

*Q* Kindly provide the recorded test outcome for the following compound: `C/C=C/C[C@@H](C)C(=O)[C@H]1C(=O)N[C@@H](C(C)C)C(=O)N(C)CC(=O)N(C)[C@@H](CC(C)C)C(=O)N[C@@H](C(C)C)C(=O)N(C)[C@@H](CC(C)C)C(=O)N[C@@H](C)C(=O)N[C@H](C)C(=O)N(C)[C@@H](CC(C)C)C(=O)N(C)[C@@H](CC(C)C)C(=O)N(C)[C@@H](C(C)C)C(=O)N1C`
*A* active

*Q* Kindly provide the recorded test outcome for the following compound: `N#Cc1cc(-c2n[nH]c(-c3ccncc3)n2)ccn1`
*A* inactive

*Q* Kindly provide the recorded test outcome for the following compound: CC(C)(C)c1ccc(C(O)CCCN2CCC(C(O)(c3ccccc3)c3ccccc3)CC2)cc1 (configuration not stated)
*A* active

* * *

Experiment: Cellular viability qHTS for adrenocortical cancer (ACC) cell line SW-13 (AID 1963989);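 note: cells grown in serum-free medium with ITS supplement; % is set by controls: 0 for no effect and ±100 for the full control effect; nearly all actives have a fitted effect of over 65% in size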
Conditions: SW-13 ACC cells viability, CellTiter-Glo, 48 h; stronger effect = lower value
Results filed as inconclusive are left out.
Listing: activity (max response) of selected compounds
Please give a number only; it is taken to be in %.

Example results:
# compound, observed-value
rows = [
    ("Cn1cc[nH]c1=S", 12),
    ("CNC(=O)c1ccc2cc(C3(O)CCn4cncc43)ccc2c1 (stereo unspecified)", -3.07),
    ("NC(=S)N/N=C/c1cccnc1", -1.7),
    ("CC(C)(Oc1ccc(Cl)cc1)C(=O)O", -3.02),
    ("COC(=O)[C@H](c1ccccc1Cl)N1CCc2sccc2C1", -22.7),
]

*Q* Find the recorded activity (max response) belonging to `S=c1[nH]c2ccccc2s1` and report it.
*A* 3

*Q* Find the recorded activity (max response) belonging to `C[C@H]1COc2c(N3CCN(C)CC3)c(F)cc3c(=O)c(C(=O)O)cn1c23` and report it.
*A* 6.21

*Q* Find the recorded activity (max response) belonging to `Nc1ccn(C[C@@H](CO)OCP(=O)(O)O)c(=O)n1` and report it.
*A* -11.5

*Q* Find the recorded activity (max response) belonging to `Cc1ccnc(NS(=O)(=O)c2ccc(NC(=O)Nc3ccc(S(=O)(=O)Nc4nccc(C)n4)cc3)cc2)n1` and report it.
*A* -24.6

*Q* Find the recorded activity (max response) belonging to `COc1cc2nccc(Oc3ccc(NC(=O)c4cn(C(C)C)c(=O)n(-c5ccc(F)cc5)c4=O)cc3F)c2cc1OC` and report it.
*A* 9.27

*Q* Find the recorded activity (max response) belonging to `Nc1cccc(S(=O)(=O)N2CCCN(S(=O)(=O)c3ccc4c(c3)OCCO4)CC2)c1` and report it.
*A* -19.9

* * *

Test: Viability qHTS for spleen associated tyrosine kinase inhibitor (SYKi) naive MV4-11 cells (AID 1963823); note: nearly all actives have a fitted effect of over 40% in size
Conditions: MV4-11 AML viability, CellTiter-Glo luminescence, 72 h; series mostly up to 45 µM
Description: Department of Medicine, Hematology/Oncology University Hospital Frankfurt, Germany. Trials have shown promising clinical activity of the selective SYK inhibitor entospletinib in patients with high expressing HOXA9/MEIS1 acute leukemias. […] 7; Detection; Luminescence; ViewLux plate reader (PerkinElmer). […] 1. Quantitative high-throughput screening (qHTS) of small molecule compounds was conducted on naive SYKi MV4-11 cell line. […] 7. Luminescence was measured on a ViewLux plate reader (PerkinElmer).
Inconclusive results are not listed. Calls of active or inactive are those of the source. Calls come from the whole dose curve; as a rule, active = well fitted cell-killing curve with a large enough effect; inconclusive = small, poorly fitted or top-dose-only effect, or effect the other way; inactive = no such curve, though single readings can be large or run the other way.
Listing: viability (% of control) of selected compounds

# compound, viability (% of control)
rows = [
    ("CC1(C)CC[C@]2(C(=O)O[C@@H]3O[C@H](CO)[C@@H](O)[C@H](O)[C@H]3O)CC[C@]3(C)C(=CCC4[C@@]5(C)CC[C@H](O[C@@H]6O[C@H](C(=O)O)[C@@H](O)[C@H](O)[C@H]6O)C(C)(C)C5CC[C@]43C)C2C1 (stereo not given in full)", "91.3% [at 9.25 µM] (inactive)"),
]

*Q* Find the recorded viability (% of control) belonging to `CC(=O)C1=C(C)N(c2cccc(C(F)(F)F)c2)C(=O)N[C@H]1c1ccc(C#N)nc1` and report it.
*A* 83.3% [at 9.25 µM] (inactive)

*Q* Find the recorded viability (% of control) belonging to CC1(C)CC[C@@]2(C(=O)O[C@@H]3O[C@H](CO)[C@@H](O)[C@H](O)[C@H]3O)C(C1)C1=CCC3[C@@]4(C)CC[C@@H](O[C@@H]5O[C@H](C(=O)O)[C@@H](O[C@@H]6OC[C@@H](O)[C@H](O)[C@H]6O)[C@H](O[C@@H]6OC[C@](O)(CO)[C@H]6O)[C@H]5O)C(C)(C)C4CC[C@@]3(C)[C@]1(C)C[C@H]2O (stereo not given in full) and report it.
*A* 11.6% [at 9.25 µM] (inactive)

*Q* Find the recorded viability (% of control) belonging to `CC(C)(S)[C@@H](N)C(=O)O` and report it.
*A* 88.9% [at 4.97 µM] (inactive)

*Q* Find the recorded viability (% of control) belonging to CC1(C)CCC2(C(=O)O)C(O)CC3(C)C(=CCC4C5(C)CCC(OC6OC(CO)C(O)C(O)C6OC6OC(CO)C(O)C(O)C6OC6OCC(O)(CO)C6O)C(C)(C)C5CCC43C)C2C1 (stereo not given) and report it.
*A* 68.6% [at 9.25 µM] (inactive)

*Q* Find the recorded viability (% of control) belonging to `NC(=O)[C@H](Cc1ccccc1)NC(=O)[C@H](CCCN=C(N)N)NC(=O)C12CC3CC(CC(C3)C1)C2` and report it.
*A* 88.8% [at 9.25 µM] (inactive)

*Q* Find the recorded viability (% of control) belonging to CC(C)=CCC/C(C)=C/CC/C(C)=C/COC1OC(COC2OCC(OC3OCC(O)C(O)C3O)C(O)C2O)C(O)C(OC2OC(C)C(OC3OC(C)C(OC4OCC(OC5OC(C)C(O)C(O)C5O)C(O)C4O)C(O)C3O)C(O)C2O)C1O (stereo not given) and report it.
*A* 70.7% [at 9.25 µM] (inactive)

*Q* Find the recorded viability (% of control) belonging to CC1(C)CC[C@]2(C(=O)OC3OC(CO)C(O)C(O)C3O)CC[C@]3(C)C(=CCC4[C@@]5(C)CC[C@H](OC6OC(C(=O)O)C(O)C(OC7OC(CO)C(O)C(O)C7O)C6O)C(C)(C)C5CC[C@]43C)C2C1 (stereo not given in full) and report it.
*A* 77.3% [at 9.25 µM] (inactive)

*Q* Find the recorded viability (% of control) belonging to COC1CC(OC2CCC3(C)C(=CCC4C3C(OC(C)=O)C(OC(=O)/C=C/c3ccccc3)C3(C)C(C(C)O)CCC43O)C2)OC(C)C1OC1CC(OC)C(OC2OC(C)C(OC3OC(CO)C(O)C(O)C3O)C(OC)C2O)C(C)O1 (stereo not given) and report it.
*A* 69.8% [at 9.25 µM] (inactive)

*Q* Find the recorded viability (% of control) belonging to `CC(=O)O[C@H]1[C@H](O[C@H]2[C@@H]3C=CO[C@@H](O[C@@H]4O[C@H](CO)[C@@H](O)[C@H](O)[C@H]4O)[C@@H]3[C@@]3(CO)O[C@@H]23)O[C@@H](C)[C@H](OC(=O)/C=C/c2ccccc2)[C@H]1OC(=O)/C=C/c1ccccc1` and report it.
*A* 88.5% [at 9.25 µM] (inactive)
